Data credit: PubChem BioAssay AID2020

TESTED SYSTEM: Cell division control protein 42 homolog (Homo sapiens)
TEST PROTOCOL: activated Cdc42 mutant GTP binding inhibitors, SAR follow-up, biochemical, pyrazoline analogs, multiplex bead flow cytometry, Ki (AID 2020)
RUN PARAMETERS: bead-based flow cytometry, Bodipy-FL-GTP binding
The source made the active and inactive calls.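 How the source made its calls: active means EC50 at or below 30 µM together with a response span of at least a set limit; inactive means the rest.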
Would you mind answering with one of these outcomes? active, inactive

[Q] Dear all, I need the recorded test outcome for NS(=O)(=O)c1ccc(N2N=C(c3ccccc3)CC2c2cccc(Cl)c2)cc1 (stereo not given) , thank you.
[A] active

[Q] Test call for this molecule, please: COc1ccc(C2CC(c3cccs3)=NN2c2ccc(S(N)(=O)=O)cc2)cc1 (stereo not given)
[A] active

[Q] // return assay outcome for O=[N+]([O-])c1ccc(N2N=C(c3ccccc3)CC2c2ccccc2)cc1 (stereo not given)
[A] inactive

[Q] Query: recorded result category for COc1ccc(C2CC(c3cccc(Cl)c3)=NN2c2ccc(S(N)(=O)=O)cc2)cc1 (stereo not given) in this test
[A] active

[Q] Hi, sorry to bother you, what did the test record for COc1ccc(C2=NN(c3ccccc3F)C(c3ccc(F)cc3)C2)cc1 (stereo not given) ?
[A] inactive

[Q] What classification did CN(C)c1ccc(C2CC(c3ccc(Br)cc3)=NN2c2ccccc2)cc1 (stereo not given) end up with in this test?
[A] inactive

[Q] How was NS(=O)(=O)c1ccc(N2N=C(c3ccccc3)CC2c2ccc(Cl)cc2)cc1 (stereo not given) classified in this test?
[A] active

[Q] Record request — test call for COc1ccccc1C1CC(c2ccccc2)=NN1c1ccc(S(N)(=O)=O)cc1 (stereo not given)
[A] inactive

[Q] Name the outcome recorded for Cc1ccccc1N1N=C(c2ccccc2)CC1c1cccc([N+](=O)[O-])c1 (stereo not given) in the assay.
[A] inactive

[Q] # lookup: test call for O=S(=O)(c1ccc(N2N=C(c3ccc(Br)cc3)CC2c2ccccc2)cc1)C(F)F (stereo not given)
[A] inactive

* * *

TESTED SYSTEM: Cell division control protein 42 homolog (Homo sapiens) (UniProt P60953)
Sequence (P60953 whole entry, looked up, change not shown): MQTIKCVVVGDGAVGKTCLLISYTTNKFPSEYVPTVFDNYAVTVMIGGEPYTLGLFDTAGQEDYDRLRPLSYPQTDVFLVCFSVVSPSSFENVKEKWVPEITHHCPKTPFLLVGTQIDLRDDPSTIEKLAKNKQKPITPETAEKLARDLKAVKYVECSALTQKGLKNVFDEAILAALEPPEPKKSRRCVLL
TEST PROTOCOL: activated Cdc42 mutant GTP binding inhibitors, SAR follow-up, biochemical, pyrazoline analogs, multiplex bead flow cytometry, Ki (AID 2020)
RUN PARAMETERS: bead-based flow cytometry, Bodipy-FL-GTP binding
The source made the active and inactive calls.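 The calls were made as follows: active = EC50 at or below 30 µM together with a response span of at least a set limit; inactive = the rest.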
OUTCOME MEASURE: EC50

Below: 4 compounds and their reported EC50.
>  <COMPOUND>
COc1ccc(C2CC(c3ccccc3)=NN2c2ccc(Cl)c(C(=O)O)c2)cc1 (stereo not given)

>  <EC50>
> 30 µM (inactive)

$$$$
>  <COMPOUND>
COc1ccc(C2CC(c3ccc(Br)cc3)=NN2c2ccccc2Cl)cc1 (stereo not given)

>  <EC50>
> 30 µM (inactive)

$$$$
>  <COMPOUND>
COc1ccc(C2=NN(c3ccccc3)C(c3ccccc3C(F)(F)F)C2)cc1 (stereo not given)

>  <EC50>
inactive

$$$$
>  <COMPOUND>
COc1ccc(C2CC(c3ccc(F)cc3)=NN2c2cc(Cl)ccc2Cl)cc1 (stereo not given)

>  <EC50>
> 30 µM (inactive)

$$$$

Continue with the compound presented below.
[Q] Form field: reported EC50 of COc1ccc(C2=NN(c3cccc(F)c3)C(c3ccc(Cl)cc3)C2)cc1 (stereo not given)
[A] inactive

* * *

TESTED SYSTEM: Cell division control protein 42 homolog (Homo sapiens)
TEST PROTOCOL: activated Cdc42 mutant GTP binding inhibitors, SAR follow-up, biochemical, pyrazoline analogs, multiplex bead flow cytometry, Ki (AID 2020)
RUN PARAMETERS: bead-based flow cytometry, Bodipy-FL-GTP binding
The source made the active and inactive calls.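 How the source made its calls: active means EC50 at or below 30 µM together with a response span of at least a set limit; inactive means the rest.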
Log the outcome using a class from 1 (yes) for active, 0 (no) for inactive

[Q] Query: recorded result category for COc1ccc(C2CC(C3CCCCC3)=NN2c2ccc(S(N)(=O)=O)cc2)cc1 (stereo not given) in this test
[A] 0 (no)

[Q] Please let me know the test result on file for Fc1ccccc1C1CC(c2ccc(Br)cc2)=NN1c1ccc(Br)cc1 (stereo not given) .
[A] 0 (no)

[Q] Hi, do you know how "Cc1onc(-c2ccccc2)c1-c1ccc(S(N)(=O)=O)cc1" came out in this test?
[A] 0 (no)

[Q] Please let me know the test result on file for COc1ccc(C2CC(c3cccc(N(C)C)c3)=NN2c2ccc(S(N)(=O)=O)cc2)cc1 (stereo not given) .
[A] 0 (no)

[Q] Fill in: this test's call for COc1cccc(C2CC(c3ccccc3)=NN2c2ccc(S(N)(=O)=O)cc2)c1 (stereo not given) is ___
[A] 1 (yes)

[Q] Give the logged outcome of this assay for the following molecule: NS(=O)(=O)c1ccc(N2N=C(c3ccccc3)CC2c2ccccc2Cl)cc1 (stereo not given)
[A] 1 (yes)

[Q] Given COc1ccc(C2CC(c3cccc(Br)c3)=NN2c2ccc(S(N)(=O)=O)cc2)cc1 (stereo not given) , state the outcome it received in this test.
[A] 0 (no)

[Q] Would you mind telling me which call this test gave O=[N+]([O-])c1cccc(C2CC(c3ccc(F)cc3)=NN2c2ccccc2)c1 (stereo not given) ?
[A] 0 (no)

[Q] Assay outcome for COc1ccc(C2=NN(c3cccc(F)c3)C(c3ccc(OC)cc3)C2)cc1 (stereo not given) : what was it?
[A] 0 (no)

[Q] Can you look up the reported call for Cc1ccccc1C1CC(c2ccccc2)=NN1c1ccc(S(N)(=O)=O)cc1 (stereo not given) for me?
[A] 1 (yes)

* * *

TESTED SYSTEM: Cell division control protein 42 homolog (Homo sapiens) (UniProt P60953)
TEST PROTOCOL: activated Cdc42 mutant GTP binding inhibitors, SAR follow-up, biochemical, pyrazoline analogs, multiplex bead flow cytometry, Ki (AID 2020)
RUN PARAMETERS: bead-based flow cytometry, Bodipy-FL-GTP binding
The source made the active and inactive calls.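 The calls were made as follows: active = EC50 at or below 30 µM together with a response span of at least a set limit; inactive = the rest.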
Reply using exactly one outcome from class 1 = active, class 0 = inactive

[Q] What did this assay record as the result for NS(=O)(=O)c1ccc(N2N=C(c3ccccc3)CC2c2ccccc2Br)cc1 (stereo unspecified) ?
[A] class 0

[Q] For COc1ccc(C2CC(c3ccccc3)=NN2c2ccc(S(N)(=O)=O)cc2)cc1OC (stereo unspecified) , what call appears in the results of this test?
[A] class 1

[Q] Assay result, entry COc1ccc(C2CC(c3cccc(OC)c3)=NN2c2ccc(S(N)(=O)=O)cc2)cc1 (stereo unspecified) — outcome?
[A] class 1

[Q] Which result was noted for this compound in the test: Clc1cccc(N2N=C(c3ccccc3)CC2c2ccccc2)c1 (stereo unspecified)
[A] class 0

[Q] Test call, this compound: CN(C)c1ccc(C2CC(c3ccc(F)cc3)=NN2c2ccccc2)cc1 (stereo unspecified)
[A] class 0

[Q] State the result this test recorded for COc1ccc(C2CC(c3cccc(C(F)(F)F)c3)=NN2c2ccc(S(N)(=O)=O)cc2)cc1 (stereo unspecified) .
[A] class 0

[Q] Lab log entry: Clc1ccc(N2N=C(c3ccccc3)CC2c2ccccc2)cc1 (stereo unspecified) — outcome as called in the assay?
[A] class 0

[Q] What classification did COc1ccc(C2CC(C)=NN2c2ccc(S(N)(=O)=O)cc2)cc1 (stereo unspecified) end up with in this test?
[A] class 0

[Q] Test call, this compound: Cc1ccc(C2CC(c3ccccc3)=NN2c2ccc(S(N)(=O)=O)cc2)cc1 (stereo unspecified)
[A] class 1

[Q] Recorded test call requested for COc1ccccc1C1CC(c2ccccc2)=NN1c1ccccc1 (stereo unspecified)
[A] class 0

[Q] I would be grateful if you could indicate the recorded call for COc1ccc(C2=NN(c3ccccc3)C(c3ccc(OC)c(OC)c3C(=O)O)C2)cc1 (stereo unspecified) .
[A] class 0

[Q] Just curious, what result did COc1ccc(C2CC(c3ccc(N(C)C)cc3)=NN2c2ccc(S(N)(=O)=O)cc2)cc1 (stereo unspecified) get here?
[A] class 0

[Q] Recorded test call requested for COc1ccc(C2CC(c3ccsc3)=NN2c2ccc(S(N)(=O)=O)cc2)cc1 (stereo unspecified)
[A] class 1

[Q] Which outcome was entered for the compound COc1ccc(C2CC(c3ccccc3C)=NN2c2ccc(S(N)(=O)=O)cc2)cc1 (stereo unspecified) in this test?
[A] class 0

[Q] Given COc1ccc(C2CC(c3ccccc3Cl)=NN2c2ccc(S(N)(=O)=O)cc2)cc1 (stereo unspecified) , state the outcome it received in this test.
[A] class 1

[Q] Called result for NS(=O)(=O)c1ccc(N2N=C(c3ccc(Br)cc3)CC2c2ccc(F)cc2)cc1 (stereo unspecified)
[A] class 0

[Q] Status in this test for Fc1ccc(C2=NN(c3cccc(Br)c3)C(c3ccccc3)C2)cc1 (stereo unspecified) ?
[A] class 0

[Q] What is the recorded call for this compound in the test? Cc1cccc(N2N=C(c3ccccc3)CC2c2ccccc2)c1 (stereo unspecified)
[A] class 0

[Q] For this compound, state the assay outcome: COc1ccc(C2CC(c3ccccc3)=NN2c2ccc(C(=O)O)cc2)cc1 (stereo unspecified)
[A] class 0

[Q] Assay outcome for COc1ccc(C2CC(c3ccc(Br)cc3)=NN2c2ccc(S(N)(=O)=O)cc2)cc1 (stereo unspecified) : what was it?
[A] class 0

[Q] Query: recorded result category for COc1ccc(C2=NN(c3ccc(S(N)(=O)=O)cc3)C(c3ccc(OC)cc3)C2)cc1 (stereo unspecified) in this test
[A] class 0
